Test system: MDA-MB-435 melanoma
Test Summary: NCI-60 one-dose screen, 48 h
Applied Conditions: 10 µM unless noted
Compounds without any hit were thinned out: in the full panel of roughly 83,000, 20% have a hit. Active and inactive are the calls of the source. The calls were made as follows: active = growth percent below 10; inactive = the rest.
Outcomes: active, inactive

Molecule	Class Label
CN(C)C(=O)C1=NC(CO)C(=O)N(c2ccc(Cl)cc2)N1 (configuration not stated)	inactive
O=C(/C=C/Nc1ccc(S(=O)(=O)O)cc1)c1ccc(F)cc1	inactive
CC1OC(O[C@@H]2[C@H](O)C(CO)OC(O[C@H]3COC(O[C@H]4CC[C@]5(C)[C@H]6CC[C@]78OC[C@@]9(CCC(C)(C)C[C@H]97)[C@H](O)C[C@@]8(C)[C@]6(C)CC[C@H]5C4(C)C)[C@@H](OC4OC(CO)[C@@H](O)[C@@H](O)[C@@H]4O)[C@@H]3O)[C@H]2OC2OC[C@@H](O)[C@@H](O)[C@@H]2O)[C@@H](O)[C@@H](O)[C@H]1O (some centres not stated)	active
CS(=O)(=O)c1ccc2c(c1)c1c(n2C(=O)c2ccc(Cl)cc2)CCCC1	active
CCN1C(=O)N(CC)C2SC(N/N=C/c3ccc(OC)cc3)=NC21 (configuration not stated)	active
COc1cnc2c(c1)C(=O)c1c-2n(CCCNCC2CC2)c(=O)c2cc(F)ccc12	inactive
N/C(=N\OC(=O)CSc1nc2ccccc2s1)c1ccc2ccccc2c1	inactive

----------
Test system: SK-MEL-28 melanoma
Test Summary: NCI-60 one-dose screen, 48 h
Applied Conditions: 10 µM unless noted
About 83,000 compounds went through this panel and 20% of them were active in at least one assay; those are over-represented in the sample as a whole. Activity calls are given as the source filed them. Rule for the calls: active = growth percent below 10; inactive = the rest.
Outcomes: TRUE for active, FALSE for inactive

> print(dat)
                                    compound  class.label
 1  COc1ccc2c(C3=C(c4c[nH]c5ccccc45)C(=O)N(O)C3=O)coc2c1        FALSE
 2  COc1ccc(C2CC(c3ccc(Nc4nc(NCCO)nc(Nc5ccc(Cl)cc5)n4)cc3)=Nc3c(N)nc(N)nc3N2)cc1 (stereo not drawn)        FALSE
 3  Oc1ccc(CSc2nnc(-c3ccc(Oc4ccccc4)cc3)n2-c2ccccc2)c2cccnc12        FALSE
 4  C[C@H]1[C@H](C)CC[C@]2(COC(=O)c3cccnc3)CC[C@]3(C)C(=CC[C@@H]4[C@@]5(C)CCCNC(C)(C)[C@@H]5CC[C@]43C)[C@H]12        FALSE
 5  COc1ccc(Cn2cc3c(c2-c2cc(OC)c(OC)c(OC)c2)CCCc2cnoc2-3)cc1        FALSE
 6  COc1cc(/C=C/C(=O)c2ccc(NC(=O)CSc3nnc(-c4ccc5nc(-c6ccccc6)[nH]c5c4)o3)cc2)cc(OC)c1OC        FALSE
 7  NC(N)=NS(=O)(=O)c1ccc(N=NC2C(=O)NN(c3ccccc3)C2=O)cc1 (stereo not drawn)        FALSE
 8  Cc1ccc(-n2cc(/C=C/C(=O)c3ccc(S(C)(=O)=O)cc3)c(-c3ccc(S(C)(=O)=O)cc3)n2)cc1        FALSE
 9  Nc1cc(F)ccc1NC(=O)c1ccc(NC(=O)C/C=C/c2cccnc2)cn1         TRUE
10  O=C1c2c(c3c4cc(O)ccc4oc3c3[nH]c4ccccc4c23)C(=O)N1O        FALSE
11  Nc1c(C(=O)c2ccccc2)sc2nc(-c3cnccn3)cc(-c3cccs3)c12        FALSE
12  COc1ccc(N2C(=O)c3cc(OC)c(OC)cc3NC2SCc2ccccc2)cc1 (stereo not drawn)        FALSE
13  CS(=O)(=O)c1nccc(-c2c(-c3ccc(F)c(OCc4ccc(F)cc4)c3)nc3sccn23)n1        FALSE
14     Cc1nn(-c2ccccc2)c2nc(CCl)[nH]c(=O)c12        FALSE
15  NCCN1CCN(c2nc(-c3ccccc3)nc3nc(-c4ccccc4)oc23)CC1         TRUE
16  C#CCOc1ccccc1C(Nc1ccccc1)c1nnnn1C1CCCCC1 (stereo not drawn)        FALSE
17  CCOC(=O)Nc1ccc(-c2nc(-c3cccc(O)c3)c(-c3ccnc(Br)c3)[nH]2)cc1        FALSE
18  C#C[C@]1(O)CC[C@H]2[C@@H]3CC=C4c5sc(C6CC6)nc5CC[C@]4(C)[C@H]3CC[C@@]21C        FALSE
19  COc1cc2c3c(n(CCCNC4CCC4)c(=O)c2cc1OC)-c1cc2c(cc1C3=O)OCO2        FALSE
20  O=C(Nc1ccc(F)cc1)c1cc(-c2ccc(F)cc2F)ccc1O        FALSE
21  CS(=O)(=O)c1nccc(-c2c(-c3ccc(F)c(OCCc4ccc(F)cc4)c3)nc3sccn23)n1         TRUE
22  COc1ccc(S(=O)(=O)NCCCNc2nccc(-n3cnc4ccccc43)n2)cc1        FALSE
23  Cn1c2ccccc2c2c3c(c4c5ccc(Br)cc5oc4c21)C(=O)N(O)C3=O        FALSE
24  CC(=O)Nc1nc2c(s1)C1=CC[C@H]3[C@@H]4CC[C@H](C(C)=O)[C@@]4(C)CC[C@@H]3[C@@]1(C)CC2        FALSE
25         Cc1cc2nc(C(Cl)Cl)nc(-c3ccco3)n2n1        FALSE
26  COc1ccc([C@H]2[C@H](O)C(=O)N2c2cc(OC)c(OC)c(OC)c2)cc1Cl        FALSE
27  Cc1ccc(-c2nnc3sc(C4=Cc5ccccc5OC=C4)nn23)cc1        FALSE
28  Cc1nn(-c2ccc(Br)cc2)c2nc(CCl)[nH]c(=O)c12        FALSE

The measured values listed here are drawn from PubChem BioAssay (NCI).
